Data provenance is patent US6653306B1.

Please provide measured inhibition at 3 mg/kg for the entries that follow.
System: pressor response to AII
experimental protocol: Assay C: In vivo intragastric pressor assay response for AII antagonists
Parameters: species or system rat
assay setup: Rattus norvegicus, dose 3 mg/kg, intragastric, or intraduodenal for examples listed
Numbers only, in %.

CCCCc1nc(C(=O)N(C)C(C)(C)C)nn1Cc1ccc(-c2ccccc2-c2nnn[nH]2)nc1 ... 20

Give inhibition at 3 mg/kg for each of the items listed below.
1. CCCCn1cc(C2CCCCC2)n(Cc2ccc(-c3ccccc3-c3nnn[nH]3)nc2)c1=O
2. CCCCCn1cc(CCCC)n(Cc2ccc(-c3ccccc3-c3nnn[nH]3)nc2)c1=O
3. CCCCc1cn(-c2cccn2CC)c(=O)n1Cc1ccc(-c2ccccc2-c2nnn[nH]2)nc1
4. CCCCc1cn(-c2ccccc2Cl)c(=O)n1Cc1ccc(-c2ccccc2-c2nnn[nH]2)cc1

**Result**
1. 10
2. 60
3. 15
4. 35

Give one value of inhibition at 3 mg/kg per listed compound.
1. CCCCn1nc(C(=O)N(C)C(C)(C)C)nc1Cc1ccc(-c2ccccc2-c2nnn[nH]2)nc1
2. CCCCn1nc(CCC)nc1Cc1ccc(-c2ccccc2-c2nnn[nH]2)nc1
3. CCCCc1nc(Cc2ccc(-c3ccccc3-c3nnn[nH]3)nc2)n(CCCC)n1

**Result**
[0, 10, 25]
